Every entry's value here was drawn from patent US7462600B2.

# Tested on: Streptococcus pneumoniae 1095
# Format: cell-based
# CONDITION_CONTEXT: S. pneumoniae 1095 (ermB); microtiter broth dilution
Can you tell me MIC S. pneumo. 1095 for the items I'm about to list?

Quick check: MIC S. pneumo. 1095 of CC[C@H]1OC(=O)[C@H](C)C(=O)[C@H](C)[C@@H](O[C@@H]2O[C@H](C)C[C@H](N(C)C)[C@H]2O)[C@](C)(OC)C[C@@H](C)C(=O)[C@H](C)[C@H]2N(CC3(O)CN(C(=O)c4cn5ccccc5n4)C3)C(=O)O[C@]12C.O=CO ?
0.25 µg/mL

Entry CC[C@H]1OC(=O)[C@H](C)C(=O)[C@H](C)[C@@H](O[C@@H]2O[C@H](C)C[C@H](N(C)C)[C@H]2O)[C@](C)(OC)C[C@@H](C)C(=O)[C@H](C)[C@H]2N(CC3(O)CN(C(=O)c4cnc5ncccc5c4)C3)C(=O)O[C@]12C has what MIC S. pneumo. 1095?
<0.06 µg/mL

// returns reported MIC S. pneumo. 1095 for input CCC1OC(=O)C(C)C(=O)C(C)C(OC2OC(C)CC(N(C)C)C2O)C(C)(OC)CC(C)C(=O)C(C)C2N(CC3CCN(Cc4c[nH]nn4)CC3)C(=O)OC12C (centres unmarked)
>64.00 µg/mL

Recorded MIC S. pneumo. 1095 for CCC1OC(=O)C(C)C(=O)C(C)C(OC2OC(C)CC(N(C)C)C2O)C(C)(OC)CC(C)C(=O)C(C)C2N(CC3CCN(Cc4ccnc5ccccc45)C3)C(=O)OC12C (centres unmarked) , please?
0.12 µg/mL

Which MIC S. pneumo. 1095 is listed for CCC1OC(=O)C(C)C(=O)C(C)C(OC2OC(C)CC(N(C)C)C2O)C(C)(OC)CC(C)C(=O)C(C)C2N(CC3CCCN3C(=O)c3cnc4ncccc4c3)C(=O)OC12C (centres unmarked) ?
<0.06 µg/mL

* * *

Please respond with reported MIC S. pneumo. 1175 for every item in the list.
# System: Streptococcus pneumoniae 1175
# Format: cell-based
# CONDITION_CONTEXT: Streptococcus pneumoniae 1175; microtiter broth dilution

Lab note: need MIC S. pneumo. 1175 with Streptococcus pneumoniae 1175 for entry CCC1OC(=O)C(C)C(=O)C(C)C(OC2OC(C)CC(N(C)C)C2O)C(C)(OC)CC(C)C(=O)C(C)C2N(C3CN(S(=O)(=O)c4cccc(F)c4)C3)C(=O)OC12C (centres unmarked) , please look it up.
<0.06 µg/mL

So what MIC S. pneumo. 1175 did CCC1OC(=O)C(C)C(=O)C(C)C(OC2OC(C)CC(N(C)C)C2O)C(C)(OC)CC(C)C(=O)C(C)C2N(C3CN(S(=O)(=O)c4cccc(-c5csnn5)c4)C3)C(=O)OC12C (centres unmarked) get with Streptococcus pneumoniae 1175?
<0.06 µg/mL

Find the measured MIC S. pneumo. 1175: item CCC1OC(=O)C(C)C(=O)C(C)C(OC2OC(C)CC(N(C)C)C2O)C(C)(OC)CC(C)C(=O)C(C)C2N(C3CN(C(COC)c4ccnc5ncccc45)C3)C(=O)OC12C (centres unmarked) [Example 1.80] , target or system Streptococcus pneumoniae 1175.
0.125 µg/mL

API: value(readout= MIC S. pneumo. 1175, system= Streptococcus pneumoniae 1175, query= CCC1OC(=O)C(C)C(=O)C(C)C(OC2OC(C)CC(N(C)C)C2O)C(C)(OC)CC(C)C(=O)C(C)C2N(C3CN(S(=O)(=O)c4ccc(-n5cccn5)c(F)c4)C3)C(=O)OC12C (centres unmarked) )
<0.06 µg/mL

Observed MIC S. pneumo. 1175 on Streptococcus pneumoniae 1175 for CCC1OC(=O)C(C)C(=O)C(C)C(OC2OC(C)CC(N(C)C)C2O)C(C)(OC)CC(C)C(=O)C(C)C2N(C3CN(S(=O)(=O)c4ccccc4C#N)C3)C(=O)OC12C (centres unmarked) , please.
<0.06 µg/mL
